# Test system: NCI-H460 lung
# PROCEDURE_SUMMARY: NCI-60 one-dose screen, 48 h (100 = growth as untreated, 0 = no growth, -100 = all killed)
# EXPERIMENTAL_CONTEXT: 10 µM unless noted
The panel holds about 83,000 compounds, 20% with a hit somewhere; the sample as a whole holds those more often. Active and inactive are the calls of the source. The calls were made as follows: active = growth percent below 10; inactive = the rest.
OBSERVABLE: growth

>>> result("CC1(C)CC[C@]2(C(=O)N3CCNCC3)CC[C@]3(C)C(=CC[C@@H]4[C@@]5(C)CCC(=O)C(C)(C)[C@@H]5CC[C@]43C)[C@@H]2C1")
"109% (inactive)"
>>> result("CCCCNCC(O)c1cc(-c2ccc(C(F)(F)F)cc2)nc(-c2ccc(C(F)(F)F)cc2)c1 (stereo not given)")
"-76.7% (active)"
>>> result("CCCc1n(Cc2ccc3ccccc3c2)c2ccccc2[n+]1Cc1ccc2ccccc2c1")
"-76.1% (active)"
>>> result("O=C(Nc1ccccc1Cl)Oc1ccc2ccccc2c1")
"102% (inactive)"
>>> result("O=C1CC2(O)CSc3nc(=O)cc(n32)N1 (stereo not given)")
"104% (inactive)"
>>> result("CC(=O)Nc1nonc1-c1nc2ccccc2n1Cc1ccc(C(C)(C)C)cc1")
"79.3% (inactive)"
>>> result("CCN(CC)c1ccc(C(=N)c2ccc(N(C)C)cc2)cc1")
"0.221% (active)"
>>> result("Cc1cc(C)c2c(n1)sc1c(Nc3ccc(O)cc3)ncnc12")
"10.1% (inactive)"
>>> result("O=C(Nc1ccccc1)C(CCCCN1C(=O)c2ccccc2C1=O)N1C(=O)c2ccccc2C1=O (stereo not given)")
"109% (inactive)"
>>> result("O=C(/C=C/c1cccc([N+](=O)[O-])c1)c1ccc(Nc2nc(N3CCCCC3)nc(N3CCCCC3)n2)cc1")
"96% (inactive)"
>>> result("N#Cc1c(NN)n(C2OC(CO)C(O)C2O)c2ncnc(N)c12 (stereo not given)")
"-13.4% (active)"
>>> result("NC(=S)N/N=C(/c1cccs1)C1CC1")
"106% (inactive)"
>>> result("COc1ccc(/C=C/C(=O)c2ccc(NC(=O)CSc3nnc(-c4ccc(Cl)cc4)n3-c3ccccc3)cc2)cc1")
"104% (inactive)"
>>> result("C=CCn1c(C)nc2cc(Nc3nc(N4CCOCC4)nc4nc[nH]c34)ccc21")
"94.1% (inactive)"
>>> result("Nc1nc(N)c2c(n1)NC(c1sc(Cl)nc1Cl)CC(c1ccccc1)=N2 (stereo not given)")
"26.8% (inactive)"
>>> result("COc1ccc(C(=O)C(C#N)c2cc(OC)c(OC)c(OC)c2)cc1 (stereo not given)")
"107% (inactive)"
>>> result("COc1cc(/C=C/C(=O)c2c(C)nc3ccccc3c2C)ccc1OCCCOc1cc2c(cc1OC)C(=O)N1CCC[C@H]1C=N2")
"-61% (active)"
>>> result("COc1cccc(NC(=O)[C@H](C(C)C)n2c(=O)[nH]c3ccccc3c2=O)c1")
"103% (inactive)"
>>> result("FC1(F)CCN(Cc2c[nH]c3cc(Cl)ccc23)C[C@H]1CCc1ccccc1")
"42.8% (inactive)"
>>> result("COc1ccc2[nH]c(C(=O)OCc3ccc4cccc(O)c4n3)cc2c1")
"7.31% (active)"
>>> result("C#CC[C@@H]1C[C@]2(C)[C@H]3CC=C4[C@H]5CC(C)(C)CC[C@]5(C(=O)NCCCCN)CC[C@@]4(C)[C@]3(C)CC[C@H]2C(C)(C)[C@H]1OC(C)=O")
"-27.6% (active)"
>>> result("O=C(/C=C/c1ccccc1)n1c(-c2ccccc2)nc2ccccc21")
"103% (inactive)"
>>> result("Cc1cc(C)c2c(NC(=O)Nc3ccc(Cl)c(Cl)c3)n[nH]c2n1")
"106% (inactive)"
>>> result("CCCCn1c(-c2ccc(F)cc2)nc2cc(OC)c(OC)cc2c1=O")
"112% (inactive)"
>>> result("c1ccc2c(c1)cnc1ccccc12")
"110% (inactive)"
>>> result("CN1CCN(Cc2ccc(NC(=O)c3cccc(C#Cc4cnc(N)c5ncccc45)c3F)cc2C(F)(F)F)CC1")
"-71.8% (active)"
>>> result("CCNC(=S)N(Cc1ccccc1)Cc1ccccc1")
"131% (inactive)"
>>> result("CC(=O)N1N=C(c2ccc(C)cc2)CC1c1cn(-c2ccccc2)nc1-c1cccc(Nc2ccnc3cc(Cl)ccc23)c1 (stereo not given)")
"15.8% (inactive)"
>>> result("Cc1cc(C#Cc2ccccc2)ccc1-n1c(/C=C/c2ccc(F)cc2)nc2ccccc2c1=O")
"63.6% (inactive)"
>>> result("COc1ccc(C(=O)/C=C/c2cn(-c3ccccc3)nc2-c2cccc(Nc3ccnc4cc(Cl)ccc34)c2)cc1")
"96.6% (inactive)"
>>> result("Fc1ccc2c(CN3CCO[C@H](COc4cccc(Cl)c4)C3)c[nH]c2c1")
"30.2% (inactive)"
>>> result("CN(C)CCOc1nc2c3ccncc3cc(-c3cccc(Cl)c3)c2c2cnccc12")
"10.5% (inactive)"
>>> result("Cc1ccccc1CNc1ncnc2[nH]ncc12")
"104% (inactive)"
>>> result("O=c1[nH]cnc2nc[nH]c12")
"103% (inactive)"
>>> result("CCN(CC)CCCCCCCNc1cc(OC)cc2c(C)ccnc12")
"85.2% (inactive)"
>>> result("COc1ccc(C2CC(c3cccc(Nc4ccnc5cc(Cl)ccc45)c3)=NN2c2ccc(Cl)cc2)cc1 (stereo not given)")
"47.6% (inactive)"
>>> result("COc1ccc2c(c1)CCCC21C(=O)Nc2ccccc21 (stereo not given)")
"115% (inactive)"
>>> result("CN(C)c1ccc(/C=N/Nc2nnc3n2N=C(c2ccc(Cl)cc2)CS3)cc1")
"93.4% (inactive)"
>>> result("CCCCCCCCCCCCCCCCS(=O)(=O)Nc1cc(C(=O)NN)cc(C(=O)NN)c1")
"95.6% (inactive)"
>>> result("CCN(CC)Cc1cc(Nc2nc(NC3CCC(N(C)C)CC3)c3ccccc3n2)ccc1OC (stereo not given)")
"89.7% (inactive)"
